Measured On: Mediator of RNA polymerase II transcription subunit 23 (Homo sapiens)
Protocol Summary: Inhibition of ESX-Med23 interaction assessed as binding affinity to Med23 (352-625) by fluorescence polarization
Experimental Readout: Kd (nM)

Below, each entry is followed by its recorded Kd result.
{"Compound String": "CC(C)C[C@]1(CCO)C[C@H](CNC(=S)Nc2ccc(-c3c4ccc(=O)cc-4oc4cc(O)ccc34)c(C(=O)O)c2)ON1Cc1ccc2ccccc2c1", "Unit": "nM", "Kd": 1000}
{"Compound String": "CC(C)C[C@]1(CCO)C[C@H](CNC(=S)Nc2ccc(-c3c4ccc(=O)cc-4oc4cc(O)ccc34)c(C(=O)O)c2)ON1Cc1ccc(-c2ccccc2)cc1", "Unit": "nM", "Kd": 620}

[a] CC(C)C[C@]1(CCO)C[C@H](CNC(=S)Nc2ccc(-c3c4ccc(=O)cc-4oc4cc(O)ccc34)c(C(=O)O)c2)ON1Cc1ccc(C(F)(F)F)cc1
[b] CC(C)C[C@]1(CCO)C[C@H](CNC(=S)Nc2ccc(-c3c4ccc(=O)cc-4oc4cc(O)ccc34)c(C(=O)O)c2)ON1Cc1ccccc1
Returns the identifier with the smallest measured Kd among a and b . Identify your pick by its label.
a

Reference source: ChEMBL document CHEMBL1154312
